Listing: pIC50 of selected compounds
TGT: Proton Pump (H^+ /K^+ ATPase) (Oryctolagus cuniculus)
Construct: The microsomes thus obtained were used as an enzyme source of the in vitro enzyme reaction study of proton pump; from tissue; host or cells: rabbit stomach, mucosal scrapings, microsomes (180,000 g pellet)
Sequence (P27112 whole entry): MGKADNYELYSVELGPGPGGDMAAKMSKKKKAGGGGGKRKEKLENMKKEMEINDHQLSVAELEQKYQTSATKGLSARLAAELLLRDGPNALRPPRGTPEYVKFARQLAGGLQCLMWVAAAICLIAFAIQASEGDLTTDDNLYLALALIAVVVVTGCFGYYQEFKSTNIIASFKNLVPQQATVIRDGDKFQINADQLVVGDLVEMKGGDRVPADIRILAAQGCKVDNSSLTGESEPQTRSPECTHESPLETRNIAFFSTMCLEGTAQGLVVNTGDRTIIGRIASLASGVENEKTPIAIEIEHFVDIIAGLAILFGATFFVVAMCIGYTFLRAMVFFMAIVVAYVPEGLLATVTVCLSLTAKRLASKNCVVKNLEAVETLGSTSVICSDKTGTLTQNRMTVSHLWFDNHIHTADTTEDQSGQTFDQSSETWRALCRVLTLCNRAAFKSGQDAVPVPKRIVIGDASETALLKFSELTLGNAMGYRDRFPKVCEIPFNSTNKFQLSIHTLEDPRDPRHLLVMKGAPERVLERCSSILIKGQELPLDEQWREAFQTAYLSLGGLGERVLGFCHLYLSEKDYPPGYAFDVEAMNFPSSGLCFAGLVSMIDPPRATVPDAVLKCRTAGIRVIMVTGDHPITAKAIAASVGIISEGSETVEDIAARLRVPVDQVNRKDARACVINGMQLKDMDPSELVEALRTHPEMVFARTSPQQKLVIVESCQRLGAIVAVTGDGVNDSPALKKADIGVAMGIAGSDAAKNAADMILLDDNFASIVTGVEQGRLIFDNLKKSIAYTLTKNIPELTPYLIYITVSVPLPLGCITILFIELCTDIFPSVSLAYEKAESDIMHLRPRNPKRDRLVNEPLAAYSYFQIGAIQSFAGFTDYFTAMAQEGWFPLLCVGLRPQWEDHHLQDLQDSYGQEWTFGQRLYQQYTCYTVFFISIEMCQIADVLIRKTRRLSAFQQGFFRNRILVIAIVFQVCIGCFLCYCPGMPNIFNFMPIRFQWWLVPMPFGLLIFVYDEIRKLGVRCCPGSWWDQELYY
Sequence (P18597 whole entry partner): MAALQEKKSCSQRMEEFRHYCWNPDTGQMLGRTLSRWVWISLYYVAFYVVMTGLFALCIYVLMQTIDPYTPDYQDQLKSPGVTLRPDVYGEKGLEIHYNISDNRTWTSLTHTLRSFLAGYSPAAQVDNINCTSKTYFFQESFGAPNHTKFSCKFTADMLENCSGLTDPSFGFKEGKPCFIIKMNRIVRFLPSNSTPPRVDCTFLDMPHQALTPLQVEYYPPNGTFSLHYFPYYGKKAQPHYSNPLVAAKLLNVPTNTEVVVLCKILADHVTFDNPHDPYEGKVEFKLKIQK
TEST_SUMMARY: Inhibition of Proton Pump (H+/K+ ATPase) Activity, in vitro enzyme reaction (Experiment 1)
Type: biochemical, New Zealand white rabbit
EXPERIMENTAL_CONTEXT: K+-stimulated H+/K+ ATPase activity, rabbit gastric microsomes, pH 7.2, 37° C., 15 min prereaction, 30 min reaction; read-out: IC50 of test compound, inhibition (50%) of the proton pump activity
Procedure: A New Zealand white rabbit was killed by blowing its head and the stomach was taken out. The contents of the stomach were removed and the stomach walls were washed with was saline. The inner wall of the stomach was scratched out with a slide glass and the cells thus obtained were homogenized in 0.25M sucrose buffer by means of a Teflon-glass homogenizer. […] The inhibitory effects of proton pump activity by the compounds of the present invention were measured by the in vitro enzyme reaction study. […]
pIC50: −log10 of the molar value.
VALUE_KIND: pIC50

{"columns": ["COMPOUND", "OBSERVED_MEASUREMENT"],
 "data": [
  ["Cc1cc(F)ccc1Nc1nc(N2CCc3ccccc3C2C)c2cccc(OCCO)c2n1 (stereo not drawn) [Example 37]", "~4.90"],
  ["CCC1c2ccccc2CCN1c1nc(Nc2ccc(F)cc2C)nc2c(OC)cccc12.Cl (stereo not drawn) [Example 46, Hydrochloride]", "~5.22"],
  ["COc1cccc2c(N3CCc4cc(C)ccc4C3C)nc(Nc3ccc(F)cc3)nc12.Cl (stereo not drawn) [Example 54, Hydrochloride]", "~4.90"]
]}
